target_system: anti-CD28 Fab
Sequence (VH, as listed by the source, chain 1 of 2): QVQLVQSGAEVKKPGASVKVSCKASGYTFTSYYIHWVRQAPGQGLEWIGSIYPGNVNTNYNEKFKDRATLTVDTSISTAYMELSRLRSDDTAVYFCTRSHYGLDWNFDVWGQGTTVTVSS
Sequence (VL, as listed by the source, chain 2 of 2): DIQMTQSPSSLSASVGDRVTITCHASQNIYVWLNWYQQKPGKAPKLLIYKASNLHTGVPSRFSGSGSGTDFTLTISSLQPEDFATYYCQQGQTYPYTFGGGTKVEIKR
method_notes: competition ELISA, peptide titrated 0-100 uM against 1 nM anti-CD28 Fab, plate-bound CD28 as competitor
Parameter IC50: see the listing below.
Your answer should be a plain number; it is taken to be in µM.

Look over these answered cases.
binder="YCEGHRPEYILKCL [Peptide-118]" measurement_type=IC50 result_value=13.3
binder="YCEGHSQENIWKCL [Peptide-124]" measurement_type=IC50 result_value=4.07
binder="YCEGHAPEYIWKCL [Peptide-123]" measurement_type=IC50 result_value=1.32

Consider the additional binder presented here.
**Query** For YCAGHAWQYINKCL [Peptide-87] , what is its reported IC50?
**Result** 9.76
